Kindly state IC50, reporter cell assay for each of the entries shown.
# Tested System: hLTBP1-proTGFβ1 as produced in the cell-based activation assay (human, UniProt P01137 30-390; Q14766 347-1721)
# Sequence (P01137 30-390 limits assumed, chain 1 of 2): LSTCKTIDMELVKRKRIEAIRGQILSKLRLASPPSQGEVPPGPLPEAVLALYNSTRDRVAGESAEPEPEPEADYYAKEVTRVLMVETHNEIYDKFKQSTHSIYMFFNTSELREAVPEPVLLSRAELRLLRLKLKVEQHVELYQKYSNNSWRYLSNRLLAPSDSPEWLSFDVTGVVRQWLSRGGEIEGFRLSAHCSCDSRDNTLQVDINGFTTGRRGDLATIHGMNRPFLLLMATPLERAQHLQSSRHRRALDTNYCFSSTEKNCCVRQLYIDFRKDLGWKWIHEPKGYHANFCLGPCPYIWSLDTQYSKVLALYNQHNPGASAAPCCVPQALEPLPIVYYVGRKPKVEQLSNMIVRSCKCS
# Sequence (Q14766 347-1721 limits assumed, chain 2 of 2): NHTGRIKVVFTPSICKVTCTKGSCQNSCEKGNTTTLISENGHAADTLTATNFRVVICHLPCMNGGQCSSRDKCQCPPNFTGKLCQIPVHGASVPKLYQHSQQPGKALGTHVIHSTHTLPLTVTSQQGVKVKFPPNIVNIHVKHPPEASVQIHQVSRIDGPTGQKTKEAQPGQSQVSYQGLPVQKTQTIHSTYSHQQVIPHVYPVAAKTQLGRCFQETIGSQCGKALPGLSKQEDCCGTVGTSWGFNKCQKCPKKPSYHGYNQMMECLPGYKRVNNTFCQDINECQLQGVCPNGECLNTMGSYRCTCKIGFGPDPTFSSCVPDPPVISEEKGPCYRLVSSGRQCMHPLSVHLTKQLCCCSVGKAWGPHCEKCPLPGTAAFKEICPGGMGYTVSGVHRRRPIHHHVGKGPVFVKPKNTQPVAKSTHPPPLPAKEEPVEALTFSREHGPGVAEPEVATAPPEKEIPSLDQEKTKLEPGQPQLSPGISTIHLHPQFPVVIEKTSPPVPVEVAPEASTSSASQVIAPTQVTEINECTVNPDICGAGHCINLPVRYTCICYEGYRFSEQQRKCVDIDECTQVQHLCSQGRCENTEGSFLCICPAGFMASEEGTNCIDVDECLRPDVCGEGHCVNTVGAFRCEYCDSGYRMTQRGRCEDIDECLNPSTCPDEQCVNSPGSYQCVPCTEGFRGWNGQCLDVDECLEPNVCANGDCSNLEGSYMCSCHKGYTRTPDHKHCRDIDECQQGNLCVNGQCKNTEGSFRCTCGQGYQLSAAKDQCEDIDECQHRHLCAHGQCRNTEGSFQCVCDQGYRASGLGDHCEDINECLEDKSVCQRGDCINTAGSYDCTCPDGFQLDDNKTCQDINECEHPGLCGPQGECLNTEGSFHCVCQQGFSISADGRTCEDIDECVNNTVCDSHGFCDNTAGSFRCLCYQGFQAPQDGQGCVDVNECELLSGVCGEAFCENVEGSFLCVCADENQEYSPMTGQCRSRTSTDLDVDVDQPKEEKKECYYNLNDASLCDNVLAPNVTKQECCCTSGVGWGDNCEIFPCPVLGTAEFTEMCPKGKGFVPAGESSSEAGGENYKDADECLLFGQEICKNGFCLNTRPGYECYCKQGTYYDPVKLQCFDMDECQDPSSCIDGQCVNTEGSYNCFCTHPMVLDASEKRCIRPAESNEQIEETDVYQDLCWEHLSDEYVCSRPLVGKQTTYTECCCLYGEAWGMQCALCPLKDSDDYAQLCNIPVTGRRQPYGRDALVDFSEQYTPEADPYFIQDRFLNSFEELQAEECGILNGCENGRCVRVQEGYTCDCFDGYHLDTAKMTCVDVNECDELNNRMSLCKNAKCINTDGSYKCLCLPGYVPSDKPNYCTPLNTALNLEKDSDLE
# Assay Notes: cell-based or functional assay
Express the result in nM but write the number alone.

(Q) Answer with reported IC50, reporter cell assay of Ab2 (antibody, V domains shown) VH: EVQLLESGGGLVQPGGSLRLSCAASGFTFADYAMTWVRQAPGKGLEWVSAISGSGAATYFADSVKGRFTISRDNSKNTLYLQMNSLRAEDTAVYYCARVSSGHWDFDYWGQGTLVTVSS VL: DIQLTQSPSSLSASVGDRVTITCRASQSISSYLNWYQQKPGKAPKLLIYAASNLQSGVPSRFSGSGSGTDFTLTISSLQPEDFATYYCQQTYTVPLTFGGGTKVEIKR
(A) 3.39

(Q) Answer with reported IC50, reporter cell assay of Ab5 (antibody, V domains shown) VH: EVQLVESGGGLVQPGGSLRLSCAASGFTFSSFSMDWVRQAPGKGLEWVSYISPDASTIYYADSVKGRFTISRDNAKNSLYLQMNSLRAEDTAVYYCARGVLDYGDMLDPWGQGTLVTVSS VL: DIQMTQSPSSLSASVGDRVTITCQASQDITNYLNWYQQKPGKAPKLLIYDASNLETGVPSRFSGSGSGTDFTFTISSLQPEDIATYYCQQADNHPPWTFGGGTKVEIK
(A) 1.29

(Q) Using the record for Ab4 (antibody, IgG4, V domains shown, parent of Ab6) VH: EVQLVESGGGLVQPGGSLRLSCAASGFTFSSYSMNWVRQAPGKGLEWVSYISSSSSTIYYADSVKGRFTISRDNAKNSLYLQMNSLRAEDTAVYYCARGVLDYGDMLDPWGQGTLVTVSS VL: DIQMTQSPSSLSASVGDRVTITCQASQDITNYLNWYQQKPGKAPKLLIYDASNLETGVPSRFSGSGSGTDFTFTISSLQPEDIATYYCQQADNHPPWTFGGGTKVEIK , state its measured IC50, reporter cell assay.
(A) 5.22

(Q) Note IC50, reporter cell assay for the binder shown: Ab1 (antibody, V domains shown) VH: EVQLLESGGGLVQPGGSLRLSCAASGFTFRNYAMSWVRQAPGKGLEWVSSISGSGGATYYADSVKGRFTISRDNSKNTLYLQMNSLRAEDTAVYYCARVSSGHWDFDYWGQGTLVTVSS VL: DIQLTQSPSSLSASVGDRVTITCQASQDISNFLNWYQQKPGKAPKLLIYDASNLETGVPSRFSGSGSGTDFTFTISSLQPEDIATYYCQQVFNPPLTFGGGTKVEIK
(A) 14.5

(Q) For the binder Ab26 (antibody, IgG4, V domains shown) VH: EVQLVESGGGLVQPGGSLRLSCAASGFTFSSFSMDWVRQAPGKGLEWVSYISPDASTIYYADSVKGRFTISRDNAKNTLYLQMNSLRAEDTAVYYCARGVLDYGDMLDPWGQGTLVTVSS VL: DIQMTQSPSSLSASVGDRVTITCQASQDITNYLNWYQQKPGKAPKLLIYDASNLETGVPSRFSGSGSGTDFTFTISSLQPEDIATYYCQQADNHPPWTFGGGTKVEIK , give its reported IC50, reporter cell assay.
(A) 0.713

(Q) In one line, give reported IC50, reporter cell assay of the entry Ab33 (antibody, IgG4, V domains shown) VH: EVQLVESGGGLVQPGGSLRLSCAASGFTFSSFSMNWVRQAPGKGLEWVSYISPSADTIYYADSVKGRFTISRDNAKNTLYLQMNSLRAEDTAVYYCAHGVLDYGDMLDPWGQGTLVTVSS VL: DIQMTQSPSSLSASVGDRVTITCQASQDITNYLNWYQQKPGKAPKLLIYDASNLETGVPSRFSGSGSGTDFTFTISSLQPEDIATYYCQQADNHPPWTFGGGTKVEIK .
(A) 1.56

(Q) Supply IC50, reporter cell assay value. Item: Ab11 (antibody, IgG4, V domains shown) VH: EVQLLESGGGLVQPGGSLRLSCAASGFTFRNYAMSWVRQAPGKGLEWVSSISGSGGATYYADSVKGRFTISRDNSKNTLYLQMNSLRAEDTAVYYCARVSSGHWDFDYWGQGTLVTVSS VL: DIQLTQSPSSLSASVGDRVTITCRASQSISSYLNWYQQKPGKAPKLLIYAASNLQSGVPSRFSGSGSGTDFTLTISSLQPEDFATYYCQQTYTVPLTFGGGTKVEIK
(A) 2.95

Reference source: patent US20250215072A1
